Each recorded value in this set is attributed to paper PMC3794980.

biological target: DRB1*0404 (Homo sapiens, UniProt P01903+P01911, A100R/A169T/F76Y/I96L/K127E/L162R/M171V/N62H/P40V/Q125Y/R42H/S133A/S149N/S66Y/V209L/W38E); experiment: biochemical
value.type: IC50 (µM)
Unit µM implied. Number only.

CC(C)C[C@H](NC(=O)[C@@H](NC(=O)CNC(=O)[C@H](CC(N)=O)NC(=O)[C@H](CO)NC(=O)[C@H](Cc1c[nH]c2ccccc12)NC(=O)[C@H](CC(C)C)NC(=O)[C@@H](NC(=O)[C@H](Cc1c[nH]cn1)NC(=O)[C@H](CO)NC(=O)[C@H](CCCCN)NC(=O)[C@@H]1CCCN1C(=O)[C@@H](N)Cc1c[nH]c2ccccc12)[C@@H](C)O)C(C)C)C(=O)N[C@@H](CCC(=O)O)C(=O)N[C@@H](CO)C(=O)O	3.93

Q) What does the record list as IC50 for `CSCC[C@H](NC(=O)CNC(=O)[C@H](CCCCN)NC(=O)[C@H](CC(C)C)NC(=O)[C@H](CCC(=O)O)NC(=O)[C@H](CC(C)C)NC(=O)[C@H](CCCCN)NC(=O)[C@H](CC(=O)O)NC(=O)[C@H](CCSC)NC(=O)[C@H](CCCCN)NC(=O)[C@H](CC(C)C)NC(=O)[C@H](CCCNC(=N)N)NC(=O)[C@H](CS)NC(=O)[C@H](CCCCN)NC(=O)[C@@H](N)CC(C)C)C(=O)O` ?
A) 13.2

Q) What does the record list as IC50 for `CSCC[C@H](NC(=O)[C@@H](NC(=O)[C@H](Cc1ccccc1)NC(=O)[C@H](CCCNC(=N)N)NC(=O)[C@H](CC(N)=O)NC(=O)[C@H](CC(C)C)NC(=O)[C@H](CC(C)C)NC(=O)[C@H](CC(C)C)NC(=O)[C@H](CCCNC(=N)N)NC(=O)[C@H](CO)NC(=O)[C@@H](NC(=O)[C@@H](N)CCSC)C(C)C)[C@@H](C)O)C(=O)N[C@H](C(=O)N[C@@H](Cc1c[nH]cn1)C(=O)N[C@@H](CCCNC(=N)N)C(=O)N[C@@H](CCCNC(=N)N)C(=O)O)[C@@H](C)O` ?
A) 1.07

* * *

biological target: DRB1*0405 (Homo sapiens, UniProt P01903+P01911, A100R/A169T/D86S/F76Y/I96L/K127E/L162R/M171V/N62H/P40V/Q125Y/R42H/S133A/S149N/S66Y/V115G/V209L/W38E); assay: biochemical
IC50 values by entry
Unit nM implied. Number only.

CC(C)C[C@H](NC(=O)[C@H](CCCNC(=N)N)NC(=O)[C@H](Cc1c[nH]cn1)NC(=O)[C@H](CC(=O)O)NC(=O)[C@H](CS)NC(=O)[C@H](CC(C)C)NC(=O)[C@H](CCC(N)=O)NC(=O)[C@@H](NC(=O)[C@H](Cc1ccc(O)cc1)NC(=O)[C@@H](NC(=O)[C@H](CCC(=O)O)NC(=O)[C@H](CCCNC(=N)N)NC(=O)[C@H](CC(C)C)NC(=O)[C@H](CCCCN)NC(=O)[C@@H](N)CC(C)C)C(C)C)[C@@H](C)O)C(=O)O [NS1 169-183]	277
CC[C@H](C)[C@H](NC(=O)[C@H](C)NC(=O)[C@H](CC(N)=O)NC(=O)[C@H](C)NC(=O)[C@H](CC(C)C)NC(=O)[C@H](CCC(N)=O)NC(=O)[C@H](CCCNC(=N)N)NC(=O)[C@H](Cc1c[nH]cn1)NC(=O)[C@H](CCC(=O)O)NC(=O)[C@@H]1CCCN1)C(=O)N[C@@H](Cc1ccccc1)C(=O)N[C@@H](CCCCN)C(=O)N[C@@H](CC(C)C)C(=O)N[C@H](C(=O)N[C@@H](Cc1ccc(O)cc1)C(=O)N[C@@H](CCC(N)=O)C(=O)N[C@@H](CC(N)=O)C(=O)O)[C@@H](C)O [NS5 558-574]	667

Okay, next one:
Q) What does the record list as IC50 for CC[C@H](C)[C@H](NC(=O)[C@H](C)NC(=O)[C@H](CC(N)=O)NC(=O)[C@H](C)N)C(=O)N[C@@H](Cc1ccccc1)C(=O)N[C@@H](CCCCN)C(=O)N[C@@H](CC(C)C)C(=O)N[C@H](C(=O)N[C@@H](Cc1ccc(O)cc1)C(=O)N[C@@H](CCC(N)=O)C(=O)N[C@@H](CC(N)=O)C(=O)N[C@@H](CCCCN)C(=O)N[C@H](C(=O)N[C@H](C(=O)N[C@@H](CCCCN)C(=O)N[C@H](C(=O)N[C@@H](CCC(N)=O)C(=O)O)C(C)C)C(C)C)C(C)C)[C@@H](C)O [NS5 564-580] ?
A) 1680
